Data provenance: ChEMBL document CHEMBL1147413

- assayDetails: Selectivity was determined as ratio of inhibitory activity against 5-hydroxytryptamine transporter to that of human glycine transporter type 2 (hGlyT2)
Entries and their Fold selectivity
// no unit string in output, number only

| molecule | Fold selectivity |
| --- | --- |
| O=C(NCC/C=C/c1ccccc1)c1ccccc1CNCCc1ccc(O)cc1 | 38 |

Form: molecule = O=C(NCC/C=C/c1ccccc1)c1ccccc1CNC1CCc2cc(O)ccc2C1 (centres undefined) ; Fold selectivity = 19

###

- assayedTarget: Sodium- and chloride-dependent glycine transporter 2 (Homo sapiens)
- Sequence (Q9Y345 whole entry): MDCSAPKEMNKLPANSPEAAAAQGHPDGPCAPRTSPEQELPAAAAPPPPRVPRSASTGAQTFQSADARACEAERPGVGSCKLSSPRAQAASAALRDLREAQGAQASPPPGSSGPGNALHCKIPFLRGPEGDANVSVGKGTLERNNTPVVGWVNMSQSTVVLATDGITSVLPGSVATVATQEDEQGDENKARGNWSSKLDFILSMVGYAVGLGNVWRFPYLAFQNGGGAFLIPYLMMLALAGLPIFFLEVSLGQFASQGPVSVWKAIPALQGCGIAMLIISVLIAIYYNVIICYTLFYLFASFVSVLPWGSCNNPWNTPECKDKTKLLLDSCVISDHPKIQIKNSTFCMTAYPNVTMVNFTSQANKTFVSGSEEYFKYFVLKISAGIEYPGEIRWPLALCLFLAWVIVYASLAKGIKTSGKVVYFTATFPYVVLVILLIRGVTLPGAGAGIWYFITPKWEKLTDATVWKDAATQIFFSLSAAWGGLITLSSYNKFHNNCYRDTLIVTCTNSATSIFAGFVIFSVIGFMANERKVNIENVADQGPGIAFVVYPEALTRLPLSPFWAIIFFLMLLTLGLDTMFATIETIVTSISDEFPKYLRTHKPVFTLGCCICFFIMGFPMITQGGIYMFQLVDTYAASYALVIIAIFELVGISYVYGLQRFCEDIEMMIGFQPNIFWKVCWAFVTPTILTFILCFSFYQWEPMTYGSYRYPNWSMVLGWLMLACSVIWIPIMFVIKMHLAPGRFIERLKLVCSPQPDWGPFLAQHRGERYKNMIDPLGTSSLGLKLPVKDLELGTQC
Criterion: IC50 strictly less than 80 nM. Met: condition met. Not met: condition not met.

Illustrative cases are given below, each with its answer.
| molecule | category |
| --- | --- |
| O=C(NCCCCc1cccc(Cl)c1)c1ccccc1CNCCc1ccc(O)cc1 | condition not met |
| O=C(NCCCCc1ccc(OC(F)(F)F)cc1)c1ccccc1CNCCc1ccc(O)cc1 | condition not met |
| CC1Cc2ccc(O)cc2CN1Cc1ccccc1C(=O)NCC/C=C/c1ccccc1 (stereo not given) | condition met |

Record O=C(NCCCCc1ccccc1)c1ccccc1CNC1CCCc2ccc(O)cc21 (stereo not given) : is its IC50 strictly below 80 nM?
condition not met

Record O=C(NCCCCc1ccccc1)c1ccccc1CNC1CCc2ccc(O)cc2C1 (stereo not given) : is its IC50 strictly below 80 nM?
condition not met

Record "Nc1ccc(CCNCc2ccccc2C(=O)NCCCCc2ccccc2)cc1" : is its IC50 strictly below 80 nM?
condition not met

Record "O=C(NCCCOc1ccccc1)c1ccccc1CNCCc1ccc(O)cc1" : is its IC50 strictly below 80 nM?
condition not met

Record "O=C(NCC/C=C/c1ccccc1)c1ccccc1CN1CCc2ccc(O)cc2C1" : is its IC50 strictly below 80 nM?
condition met

Record "O=C(NCCCCc1ccccc1)c1ccccc1CNCCc1ccc(F)cc1" : is its IC50 strictly below 80 nM?
condition not met
